Data origin: ChEMBL document CHEMBL5620415

# RBA annotations
Target: UniProt:P11473
Sequence (P11473 whole entry): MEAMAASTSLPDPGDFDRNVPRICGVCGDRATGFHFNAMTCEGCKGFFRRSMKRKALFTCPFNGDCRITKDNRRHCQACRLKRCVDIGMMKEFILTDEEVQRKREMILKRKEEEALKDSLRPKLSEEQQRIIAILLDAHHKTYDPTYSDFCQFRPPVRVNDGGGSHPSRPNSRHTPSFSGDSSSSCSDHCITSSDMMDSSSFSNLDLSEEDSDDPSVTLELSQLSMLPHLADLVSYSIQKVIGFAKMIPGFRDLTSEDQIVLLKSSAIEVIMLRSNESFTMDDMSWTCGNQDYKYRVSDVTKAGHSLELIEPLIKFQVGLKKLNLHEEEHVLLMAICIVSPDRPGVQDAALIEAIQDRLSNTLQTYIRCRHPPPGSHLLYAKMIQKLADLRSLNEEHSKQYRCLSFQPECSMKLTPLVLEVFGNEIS
Assay: Binding affinity to human full-length Vitamin D receptor assessed as relative binding affinity at 1 uM incubated for 2 hrs by fluorescence polarization based competitive binding assay relative to calcipotriol
Please state the value followed by its unit.

Illustrative cases are given below, each with its answer.
CHEMICAL STRING	RBA
OCc1ccc(/C=C/c2cccc(OCCCC(F)(F)F)c2)cc1CO	30.1%
C=CCC(O)(CC=C)CCCCOc1ccc(CCc2ccc(CO)c(CO)c2)cc1	16.2%
OCc1ccc(/C=C/c2cccc(OCCCN3CCOCC3)c2)cc1CO	34.1%
C=CCC(O)(CC=C)CCCOc1cccc(CCc2ccc(CO)c(CO)c2)c1	35.3%
CCC(O)(CC)CCCCOc1cccc(/C=C/c2ccc(CO)c(CO)c2)c1	23.1%

In: RBA for O=C(O)CCCOc1cccc(/C=C/c2ccc(CO)c(CO)c2)c1 ?
Out: 37%

In: RBA for OCc1ccc(/C=C/c2cccc(OCCCC(O)(c3ccccc3)c3ccccc3)c2)cc1CO ?
Out: 23.7%

In: RBA for COC(=O)CCCOc1cccc(COc2ccc(CO)c(CO)c2)c1 ?
Out: 19.6%
